Tested on: cancer cells
Test: MTT cytotoxic assay of esterification products (Cytotoxicity activity)
Assay type: cell-based, human
Settings: esterification products of core compound E4A with Myristoyl chloride (Myr = Myristoyl)

>  <compound>
CC1(C)CC2C3=CCC4C5(C)CCC(OC(=O)c6ccccc6)C(C)(COC(=O)c6ccccc6)C5CCC4(C)C3(C)CC(O)C2(CO)C(O)C1O (stereo not drawn)

>  <Cytotoxicity activity>
moderate

$$$$
>  <compound>
CC1(C)CC2C3=CCC4C5(C)CCC(OC(=O)c6ccccc6)C(C)(CO)C5CCC4(C)C3(C)CC(O)C2(CO)C(OC(=O)c2ccccc2)C1OC(=O)c1ccccc1 (stereo not drawn)

>  <Cytotoxicity activity>
moderate

$$$$
>  <compound>
CC1(C)CC2C3=CCC4C5(C)CCC(O)C(C)(COC(=O)c6ccccc6)C5CCC4(C)C3(C)CC(O)C2(CO)C(OC(=O)c2ccccc2)C1O (stereo not drawn)

>  <Cytotoxicity activity>
moderate

$$$$
>  <compound>
CC1(C)CC2C3=CCC4C5(C)CCC(O)C(C)(CO)C5CCC4(C)C3(C)CC(O)C2(CO)C(OC(=O)c2ccccc2)C1OC(=O)c1ccccc1 (stereo not drawn)

>  <Cytotoxicity activity>
moderate

$$$$
>  <compound>
CC1(C)CC2C3=CCC4C5(C)CCC(OC(=O)c6ccccc6)C(C)(CO)C5CCC4(C)C3(C)CC(O)C2(COC(=O)c2ccccc2)C(O)C1O (stereo not drawn)

>  <Cytotoxicity activity>
moderate

$$$$
>  <compound>
CC1(C)CC2C3=CCC4C5(C)CCC(O)C(C)(COC(=O)c6ccccc6)C5CCC4(C)C3(C)CC(OC(=O)c3ccccc3)C2(COC(=O)c2ccccc2)C(O)C1OC(=O)c1ccccc1 (stereo not drawn)

>  <Cytotoxicity activity>
weak

$$$$
